target: prostaglandin EP4 receptor (Homo sapiens (Human)); experiment: EP4 cAMP functional assay
Sequence (P35408 whole entry): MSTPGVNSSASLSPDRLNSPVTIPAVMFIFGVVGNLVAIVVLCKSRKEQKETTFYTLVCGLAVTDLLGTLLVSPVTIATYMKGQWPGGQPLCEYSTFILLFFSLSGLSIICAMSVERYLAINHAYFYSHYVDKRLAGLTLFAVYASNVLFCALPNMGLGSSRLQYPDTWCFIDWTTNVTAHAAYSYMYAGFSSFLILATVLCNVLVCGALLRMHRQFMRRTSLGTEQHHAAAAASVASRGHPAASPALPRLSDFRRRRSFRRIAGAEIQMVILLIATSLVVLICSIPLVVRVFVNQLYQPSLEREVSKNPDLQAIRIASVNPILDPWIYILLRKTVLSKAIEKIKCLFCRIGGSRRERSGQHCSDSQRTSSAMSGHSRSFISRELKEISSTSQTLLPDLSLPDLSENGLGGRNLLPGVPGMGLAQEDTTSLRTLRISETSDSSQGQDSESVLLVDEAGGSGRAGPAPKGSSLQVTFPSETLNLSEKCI
I'd be grateful if you could share measured EC50 for these entries.
Reply with just the number (in nM).

**Q:** Can you look up the measured EC50 of O=C(O)c1ccc(CC[C@H]2C(=O)CC[C@@H]2/C=C/C(O)Cc2ccc(F)c(F)c2)cc1 (single isomer, unassigned) [Entry 24] for me?
**A:** 0.3

**Q:** Which EC50 is reported for this compound? O=C(O)c1ccc(CC[C@H]2C(=O)CC[C@@H]2/C=C/C(O)Cc2cccc(C(F)(F)F)c2)cc1 (single isomer, unassigned) [Entry 12]
**A:** 0.2

**Q:** Quick one: EC50 for O=C(O)c1ccc(CC[C@H]2C(=O)CC[C@@H]2/C=C/C(O)Cc2ccc(F)cc2)cc1 (single isomer, unassigned) [Entry 19] ?
**A:** 38

**Q:** Name the recorded EC50 for O=C(O)c1ccc(CC[C@H]2C(=O)CC[C@@H]2/C=C/C(O)Cc2cc(F)ccc2F)cc1 (single isomer, unassigned) [Entry 27] .
**A:** 18

**Q:** Would you kindly share the measured EC50 for O=C(O)c1ccc(CC[C@H]2C(=O)CC[C@@H]2/C=C/C(O)Cc2cccc(F)c2F)cc1 (single isomer, unassigned) [Entry 25] ?
**A:** 30

**Q:** Field request: EC50 | item: O=C(O)c1ccc(CC[C@H]2C(=O)CC[C@@H]2/C=C/C(O)Cc2cccc(F)c2F)cc1 (single isomer, unassigned) [Entry 26]
**A:** 0.2
